- Target of assay: human recombinant HDAC1 enzyme (Homo sapiens, UniProt Q13547)
- Sequence (Q13547 whole entry): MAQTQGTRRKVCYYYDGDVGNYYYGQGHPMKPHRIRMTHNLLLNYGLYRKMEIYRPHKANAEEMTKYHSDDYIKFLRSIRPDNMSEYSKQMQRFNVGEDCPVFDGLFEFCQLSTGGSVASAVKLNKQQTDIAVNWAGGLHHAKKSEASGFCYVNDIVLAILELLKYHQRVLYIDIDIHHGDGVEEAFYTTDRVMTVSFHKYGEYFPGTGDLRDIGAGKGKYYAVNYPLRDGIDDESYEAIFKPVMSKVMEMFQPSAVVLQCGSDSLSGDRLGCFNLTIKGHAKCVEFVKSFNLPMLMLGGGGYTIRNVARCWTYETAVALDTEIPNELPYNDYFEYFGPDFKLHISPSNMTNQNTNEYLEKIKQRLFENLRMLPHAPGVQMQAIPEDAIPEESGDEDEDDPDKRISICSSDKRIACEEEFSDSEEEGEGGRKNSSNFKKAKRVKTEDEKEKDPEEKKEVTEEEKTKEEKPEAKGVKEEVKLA
- Assay overview: HDACs activity assay, HDAC1
- Type: biochemical
- Reported conditions: read-out: IC50 HDAC1; Table 3, Table S1 and text

Compound	Unit of measure	IC50
CN1c2ccccc2C(=O)N2[C@H](C(=O)Nc3ccc(C(=O)Nc4ccccc4N)cc3)Cc3c([nH]c4ccccc34)[C@@H]12 [Compound 30a]	µM	0.16

====

- Target of assay: TOP2α (Homo sapiens, UniProt P11388)
- Sequence (P11388 whole entry): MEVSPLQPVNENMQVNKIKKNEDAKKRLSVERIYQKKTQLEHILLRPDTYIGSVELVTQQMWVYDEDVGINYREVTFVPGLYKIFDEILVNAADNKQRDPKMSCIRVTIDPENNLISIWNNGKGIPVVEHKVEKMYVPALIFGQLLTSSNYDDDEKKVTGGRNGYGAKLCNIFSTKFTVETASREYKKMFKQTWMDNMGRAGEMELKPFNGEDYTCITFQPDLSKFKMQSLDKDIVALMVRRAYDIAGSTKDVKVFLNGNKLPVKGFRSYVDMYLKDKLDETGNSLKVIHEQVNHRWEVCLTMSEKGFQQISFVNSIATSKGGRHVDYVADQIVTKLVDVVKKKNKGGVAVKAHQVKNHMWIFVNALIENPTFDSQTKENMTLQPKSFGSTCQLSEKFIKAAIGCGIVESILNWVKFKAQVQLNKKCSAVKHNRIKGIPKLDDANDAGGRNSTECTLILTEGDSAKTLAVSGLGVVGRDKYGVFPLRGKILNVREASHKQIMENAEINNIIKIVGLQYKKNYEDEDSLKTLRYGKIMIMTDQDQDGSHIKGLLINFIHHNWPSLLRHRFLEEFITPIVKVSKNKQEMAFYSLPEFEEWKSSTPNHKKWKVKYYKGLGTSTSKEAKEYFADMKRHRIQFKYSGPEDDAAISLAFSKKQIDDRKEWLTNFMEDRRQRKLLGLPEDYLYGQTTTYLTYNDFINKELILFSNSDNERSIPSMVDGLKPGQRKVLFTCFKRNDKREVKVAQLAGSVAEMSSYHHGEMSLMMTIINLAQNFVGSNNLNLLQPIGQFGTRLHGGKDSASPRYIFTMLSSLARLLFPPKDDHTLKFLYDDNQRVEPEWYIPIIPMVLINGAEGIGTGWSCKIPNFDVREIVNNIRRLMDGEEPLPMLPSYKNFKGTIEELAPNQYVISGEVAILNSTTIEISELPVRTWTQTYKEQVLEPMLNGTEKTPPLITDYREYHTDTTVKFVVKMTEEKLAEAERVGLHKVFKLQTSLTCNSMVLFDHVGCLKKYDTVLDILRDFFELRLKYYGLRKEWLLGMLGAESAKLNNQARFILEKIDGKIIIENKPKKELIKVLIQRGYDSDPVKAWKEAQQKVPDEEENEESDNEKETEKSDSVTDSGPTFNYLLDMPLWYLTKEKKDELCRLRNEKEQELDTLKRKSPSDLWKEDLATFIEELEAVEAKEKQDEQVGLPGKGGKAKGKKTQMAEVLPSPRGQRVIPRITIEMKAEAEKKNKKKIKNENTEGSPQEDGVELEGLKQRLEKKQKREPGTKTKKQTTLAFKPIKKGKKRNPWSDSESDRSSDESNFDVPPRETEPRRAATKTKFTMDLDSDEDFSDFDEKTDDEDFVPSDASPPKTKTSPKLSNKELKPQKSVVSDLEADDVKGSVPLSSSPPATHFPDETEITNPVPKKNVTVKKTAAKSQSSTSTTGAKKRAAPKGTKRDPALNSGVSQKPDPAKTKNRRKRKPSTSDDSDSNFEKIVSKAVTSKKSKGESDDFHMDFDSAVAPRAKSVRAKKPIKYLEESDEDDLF
- Assay overview: TOP2-mediated pBR322 DNA relaxation assay
- Format: biochemical
- Reported conditions: 100 μmol/L
Value kind: TOP2 inhibitory activity (relaxation assay)

Compound	Target of assay	Recorded measurement
CN1c2ccccc2C(=O)N2[C@H](C(=O)NCCCCCC(=O)NO)Cc3c([nH]c4ccccc34)[C@@H]12 [Compound 20b]	TOP2α (Homo sapiens, UniProt P11388)	inactive
CN1c2ccccc2C(=O)N2[C@H](C(=O)NCCCCCCC(=O)NO)Cc3c([nH]c4ccccc34)[C@@H]12 [Compound 20a]	TOP2α (Homo sapiens, UniProt P11388)	inactive

====

- Target of assay: human recombinant HDAC1 enzyme (Homo sapiens, UniProt Q13547)
- Assay overview: HDACs activity assay, HDAC1
- Assay type: biochemical
pIC50: −log10 of the molar value.
Each entry below lists one item and its recorded pIC50 value.

Compound	pIC50
CN1c2ccc(F)cc2C(=O)N2[C@H](C(=O)Nc3ccc(C(=O)Nc4ccccc4N)cc3)Cc3c([nH]c4ccccc34)[C@@H]12 [Compound 30b]	6.74
CN1c2ccccc2C(=O)N2[C@@H](C(=O)Nc3ccc(C(=O)Nc4ccccc4N)cc3)Cc3c([nH]c4ccccc34)[C@H]12 [ent-30a]	7.66
CN1c2ccccc2C(=O)N2[C@H](C(=O)Nc3ccc(/C=C/C(=O)NO)cc3)Cc3c([nH]c4ccccc34)[C@@H]12 [Compound 25a]	7.05

====

- System: HCT116 (colon cancer)
- Assay overview: In vitro cell viability assay
- Format: cell-based
- Reported conditions: Homo sapiens, HCT-116, 48 h, read-out: IC50 HCT116
pIC50: −log10 of the molar value.
Measured pIC50 by item

Compound	pIC50
CN1c2ccccc2C(=O)N2[C@@H](C(=O)Nc3ccc(C(=O)Nc4ccccc4N)cc3)Cc3c([nH]c4ccccc34)[C@H]12 [ent-30a]	5.54
CN1c2ccccc2C(=O)N2[C@H](C(=O)NCCCCCC(=O)NO)Cc3c([nH]c4ccccc34)[C@@H]12 [Compound 20b]	4.96
CN1c2ccccc2C(=O)N2[C@@H](C(=O)Nc3cccc(/C=C/C(=O)NO)c3)Cc3c([nH]c4ccccc34)[C@H]12 [ent-25b]	5.51
CN1c2ccccc2C(=O)N2[C@H](C(=O)Nc3cccc(/C=C/C(=O)NO)c3)Cc3c([nH]c4ccccc34)[C@@H]12 [Compound 25b]	6.28
CN1c2ccccc2C(=O)N2[C@H](C(=O)Nc3ccc(C(=O)NO)cc3)Cc3c([nH]c4ccccc34)[C@@H]12 [Compound 32]	5.66
CN1c2ccccc2C(=O)N2[C@H](C(=O)NCCCCCCC(=O)NO)Cc3c([nH]c4ccccc34)[C@@H]12 [Compound 20a]	5.14
CN1c2ccccc2C(=O)N2[C@@H](C(=O)Nc3ccc(/C=C/C(=O)NO)cc3)Cc3c([nH]c4ccccc34)[C@H]12 [ent-25a]	6.28
CN1c2ccc(F)cc2C(=O)N2[C@H](C(=O)Nc3ccc(C(=O)Nc4ccccc4N)cc3)Cc3c([nH]c4ccccc34)[C@@H]12 [Compound 30b]	5.62
CN1c2ccccc2C(=O)N2[C@H](C(=O)Nc3ccc(C(=O)Nc4ccccc4N)cc3)Cc3c([nH]c4ccccc34)[C@@H]12 [Compound 30a]	5.80
CN1c2ccccc2C(=O)N2[C@@H](C(=O)Nc3ccc(C(=O)NO)cc3)Cc3c([nH]c4ccccc34)[C@H]12 [ent-32]	5.80
CN1c2ccccc2C(=O)N2[C@H](C(=O)Nc3ccc(/C=C/C(=O)NO)cc3)Cc3c([nH]c4ccccc34)[C@@H]12 [Compound 25a]	6.20

====

- Assay overview: Pharmacokinetic study in SD rats
- Assay type: in vivo
- Reported conditions: male, Sprague-Dawley, rat, plasma, po, 20 mg/kg
Value kind: half-life (h)

Compound	Recorded measurement
CN1c2ccccc2C(=O)N2[C@H](C(=O)Nc3ccc(C(=O)Nc4ccccc4N)cc3)Cc3c([nH]c4ccccc34)[C@@H]12 [Compound 30a]	4.03

====

- Target of assay: HDAC8 (Homo sapiens, UniProt Q9BY41)
- Sequence (Q9BY41 1-377): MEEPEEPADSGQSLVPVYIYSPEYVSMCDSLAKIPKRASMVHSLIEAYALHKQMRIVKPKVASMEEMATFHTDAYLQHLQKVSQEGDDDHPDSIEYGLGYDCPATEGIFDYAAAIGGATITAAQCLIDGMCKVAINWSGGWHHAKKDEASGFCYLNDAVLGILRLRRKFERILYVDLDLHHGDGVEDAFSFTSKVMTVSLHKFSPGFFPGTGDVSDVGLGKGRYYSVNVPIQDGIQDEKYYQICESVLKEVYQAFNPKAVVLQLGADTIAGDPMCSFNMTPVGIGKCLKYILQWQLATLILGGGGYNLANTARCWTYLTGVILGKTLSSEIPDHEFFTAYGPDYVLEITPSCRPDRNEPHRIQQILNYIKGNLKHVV
pIC50: −log10 of the molar value.

Compound	pIC50
CN1c2ccccc2C(=O)N2[C@H](C(=O)Nc3ccc(C(=O)Nc4ccccc4N)cc3)Cc3c([nH]c4ccccc34)[C@@H]12 [Compound 30a]	< 4.00

====

- Target of assay: human recombinant HDAC1 enzyme (Homo sapiens, UniProt Q13547)
- Assay overview: HDACs activity assay, HDAC1
- Assay type: biochemical
pIC50: −log10 of the molar value.
Each entry below carries its recorded pIC50.
Value kind: pIC50

Compound	Recorded measurement
CN1c2ccccc2C(=O)N2[C@H](C(=O)NCCCCCCC(=O)NO)Cc3c([nH]c4ccccc34)[C@@H]12 [Compound 20a]	7.57
CN1c2ccccc2C(=O)N2[C@@H](C(=O)Nc3cccc(/C=C/C(=O)NO)c3)Cc3c([nH]c4ccccc34)[C@H]12 [ent-25b]	8.00
CN1c2ccccc2C(=O)N2[C@H](C(=O)NCCCCCC(=O)NO)Cc3c([nH]c4ccccc34)[C@@H]12 [Compound 20b]	7.28
CN1c2ccccc2C(=O)N2[C@@H](C(=O)Nc3ccc(C(=O)NO)cc3)Cc3c([nH]c4ccccc34)[C@H]12	8.00
CN1c2ccccc2C(=O)N2[C@H](C(=O)Nc3ccc(C(=O)NO)cc3)Cc3c([nH]c4ccccc34)[C@@H]12	6.59
CN1c2ccccc2C(=O)N2[C@H](C(=O)Nc3cccc(/C=C/C(=O)NO)c3)Cc3c([nH]c4ccccc34)[C@@H]12 [Compound 25b]	7.51
CN1c2ccccc2C(=O)N2[C@@H](C(=O)Nc3ccc(/C=C/C(=O)NO)cc3)Cc3c([nH]c4ccccc34)[C@H]12 [ent-25a]	7.74

====

- Target of assay: HDAC10 (Homo sapiens)
- Sequence (Q969S8 whole entry): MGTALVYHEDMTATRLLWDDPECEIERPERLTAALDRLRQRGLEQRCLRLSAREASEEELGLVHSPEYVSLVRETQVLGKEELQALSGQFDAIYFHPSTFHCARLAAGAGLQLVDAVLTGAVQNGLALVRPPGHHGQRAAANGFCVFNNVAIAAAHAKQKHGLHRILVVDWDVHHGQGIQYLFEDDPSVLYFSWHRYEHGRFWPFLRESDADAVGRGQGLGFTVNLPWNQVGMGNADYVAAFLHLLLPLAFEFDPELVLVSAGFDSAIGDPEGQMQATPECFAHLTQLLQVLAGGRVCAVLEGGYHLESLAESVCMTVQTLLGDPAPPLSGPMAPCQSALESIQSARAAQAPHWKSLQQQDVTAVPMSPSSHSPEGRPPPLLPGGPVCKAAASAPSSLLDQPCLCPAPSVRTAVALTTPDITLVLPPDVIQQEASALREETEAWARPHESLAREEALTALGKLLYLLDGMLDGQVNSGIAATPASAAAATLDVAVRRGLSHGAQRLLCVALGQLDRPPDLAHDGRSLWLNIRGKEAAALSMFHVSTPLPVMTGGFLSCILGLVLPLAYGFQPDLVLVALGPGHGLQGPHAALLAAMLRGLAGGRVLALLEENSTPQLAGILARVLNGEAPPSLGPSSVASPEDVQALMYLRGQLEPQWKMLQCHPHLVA

Compound	Target of assay	IC50 [µM]
CN1c2ccccc2C(=O)N2[C@H](C(=O)Nc3ccc(C(=O)Nc4ccccc4N)cc3)Cc3c([nH]c4ccccc34)[C@@H]12 [Compound 30a]	HDAC10 (Homo sapiens)	5.5

====

Sequence of the target: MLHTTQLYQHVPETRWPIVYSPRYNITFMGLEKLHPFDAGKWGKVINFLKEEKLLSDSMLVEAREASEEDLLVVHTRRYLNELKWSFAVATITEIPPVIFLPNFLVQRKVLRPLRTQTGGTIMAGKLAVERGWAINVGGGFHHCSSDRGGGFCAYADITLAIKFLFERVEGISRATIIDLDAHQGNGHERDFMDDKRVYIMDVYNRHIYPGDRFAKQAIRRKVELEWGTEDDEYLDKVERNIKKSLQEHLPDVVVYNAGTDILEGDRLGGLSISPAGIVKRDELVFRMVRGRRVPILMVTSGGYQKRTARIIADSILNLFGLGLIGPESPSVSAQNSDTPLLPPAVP

Molecule	IC50
CN1c2ccccc2C(=O)N2[C@H](C(=O)Nc3ccc(C(=O)Nc4ccccc4N)cc3)Cc3c([nH]c4ccccc34)[C@@H]12 [Compound 30a]	> 100 µM

====

- Assay overview: Pharmacokinetic study in SD rats
- Format: in vivo
- Reported conditions: male, Sprague-Dawley, rat, plasma, ip, 20 mg/kg

Compound	AUC(0-t) / ng·h/mL
CN1c2ccccc2C(=O)N2[C@H](C(=O)Nc3ccc(C(=O)Nc4ccccc4N)cc3)Cc3c([nH]c4ccccc34)[C@@H]12 [Compound 30a]	86900

====

- Target of assay: HDAC4 (Homo sapiens)
- Sequence (P56524 whole entry): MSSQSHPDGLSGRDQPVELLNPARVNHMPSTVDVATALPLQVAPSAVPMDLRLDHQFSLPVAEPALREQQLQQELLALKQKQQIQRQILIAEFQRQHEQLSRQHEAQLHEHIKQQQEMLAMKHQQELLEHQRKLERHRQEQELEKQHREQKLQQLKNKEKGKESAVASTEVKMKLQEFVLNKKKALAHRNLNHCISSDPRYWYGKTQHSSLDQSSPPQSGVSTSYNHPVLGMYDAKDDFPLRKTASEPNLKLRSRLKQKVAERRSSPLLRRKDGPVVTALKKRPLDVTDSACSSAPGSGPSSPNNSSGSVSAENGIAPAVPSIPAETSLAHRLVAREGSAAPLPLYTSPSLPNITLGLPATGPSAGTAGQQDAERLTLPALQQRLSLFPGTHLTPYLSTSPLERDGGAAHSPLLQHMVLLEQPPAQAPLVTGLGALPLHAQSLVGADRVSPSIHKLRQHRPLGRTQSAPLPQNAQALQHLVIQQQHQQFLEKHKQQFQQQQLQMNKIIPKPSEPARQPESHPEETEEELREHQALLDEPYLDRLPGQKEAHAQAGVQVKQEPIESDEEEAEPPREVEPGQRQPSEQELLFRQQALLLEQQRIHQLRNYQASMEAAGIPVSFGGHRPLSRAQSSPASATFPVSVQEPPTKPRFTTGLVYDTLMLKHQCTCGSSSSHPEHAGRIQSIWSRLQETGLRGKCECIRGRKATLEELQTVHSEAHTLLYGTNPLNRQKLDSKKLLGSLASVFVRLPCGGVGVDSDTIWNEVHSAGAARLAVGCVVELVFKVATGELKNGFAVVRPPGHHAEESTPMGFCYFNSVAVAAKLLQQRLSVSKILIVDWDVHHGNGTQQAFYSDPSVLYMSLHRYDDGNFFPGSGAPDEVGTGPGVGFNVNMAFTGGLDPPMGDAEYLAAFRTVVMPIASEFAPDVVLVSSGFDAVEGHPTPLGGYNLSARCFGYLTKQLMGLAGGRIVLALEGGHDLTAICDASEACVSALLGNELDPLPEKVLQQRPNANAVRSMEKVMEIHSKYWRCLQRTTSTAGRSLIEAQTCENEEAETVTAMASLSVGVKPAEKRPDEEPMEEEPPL

Compound	IC50
CN1c2ccccc2C(=O)N2[C@H](C(=O)Nc3ccc(C(=O)Nc4ccccc4N)cc3)Cc3c([nH]c4ccccc34)[C@@H]12 [Compound 30a]	> 100 µM

====

- Assay overview: In vitro metabolic stability in mice liver microsomes
- Format: in vitro ADME
- Reported conditions: female, ICR, mouse, liver microsomes, pH 7.4

Compound	microsomal CLint at 1 μmol/L / µL/min/mg
CN1c2ccccc2C(=O)N2[C@H](C(=O)Nc3ccc(C(=O)Nc4ccccc4N)cc3)Cc3c([nH]c4ccccc34)[C@@H]12 [Compound 30a]	39.1
